Note to self: these compounds have IC50 reported for PIK3CB (Human) (UniProt P42338) in various publications.
REPORTED METRIC: IC50

- COc1cc(-c2cccc3cc([C@H](C)Nc4nc(N)ncc4C#N)n(-c4ccccc4)c(=O)c23)cnc1OC: 1000 to 10000 nM
- Nc1nc2cc(-c3ccc4ncc(C(=O)N5CC(F)(F)C5)n4c3)ccc2o1: > 10000 nM
- C[C@H](NC(=O)c1nc(-c2cnn(C)c2)cnc1N)c1cc2cccc(Cl)c2c(=O)n1-c1ccccc1: 1000 to 10000 nM
- CNC(=O)C(C)Cn1cnc2c(F)cc(-c3cnc(OC)c(NS(=O)(=O)c4ccc(F)cc4Cl)c3)cc2c1=O (single isomer, unassigned): 736 nM
- Cc1nc2c(-c3nnc[nH]3)cc(-c3ccnc(C#N)c3)cc2n1-c1ccnc2c(Cl)ccc(F)c12 (single isomer, unassigned): 220 nM
- C[C@H](Nc1ncnc2cccnc12)c1cc2cccc(-c3cnn(C)c3)c2c(CCN2CCOCC2)n1: > 10000 nM
- COc1ncc(-c2ccc3ncn(CC(C)C(N)=O)c(=O)c3c2)cc1NS(=O)(=O)c1sc(C)nc1C (single isomer, unassigned): 19.9 nM
- C[C@H](Nc1ncnc2[nH]cnc12)c1cc2cccc(Cl)c2c([S+]([O-])CCN2CCOCC2)n1 (stereo partly shown): < 1000 nM
- Cc1ccccc1-n1c(Cn2nc(I)c3c(N)ncnc32)cc2cccc(F)c2c1=O: > 10000 nM
- CCN(CC)CCCn1cnc2ccc(-c3ccc4oc(N)nc4c3)cc2c1=O: > 10000 nM
- COc1cccc(-c2nn(Cc3cc4cccc(C)c4c(=O)n3-c3ccccc3C)c3ncnc(N)c23)c1: < 10000 nM
- Cc1ccccc1-n1c(Cn2nc(Br)c3c(N)ncnc32)nc2snc(C)c2c1=O: > 10000 nM
- C[C@H](NC(=O)c1nc(-c2cccc(NS(=O)(=O)N(C)C)c2)cnc1N)c1cc2cccc(Cl)c2c(=O)n1-c1ccccc1: 100 to 1000 nM
- Nc1nc2cc(-c3ccc4ncn(C5CCCC5)c(=O)c4c3)ccc2o1: > 10000 nM
- CC1(CO)COC(=O)N1c1cc(-c2cnc(N)nc2C(F)(F)F)nc(N2CCOCC2)n1 (racemic): 18 nM
- Cc1cccc2cc([C@H](C)Nc3ncnc4[nH]cc(Br)c34)n(-c3ccccc3)c(=O)c12: < 100 nM
- Cc1cccc2cc(C(C)Nc3ncnc4[nH]cnc34)n(-c3ccc(F)cc3)c(=O)c12 (stereo not shown): < 1000 nM
- Nc1nc2cc(-c3ccc4ncc(N5CC6CCC(C5)O6)nc4n3)ccc2o1: > 10000 nM
- Nc1nc2cc(-c3ccc4ncc(C(=O)N5CC(O)C5)n4c3)ccc2o1: < 10000 nM
- CC(C)Oc1ccc(-c2cnc(N)c(C(=O)N[C@@H](C)c3cc4cccc(Cl)c4c(=O)n3-c3ccccc3)n2)cc1Cl: > 10000 nM
- C[C@H](Nc1ncnc2cccnc12)c1cc2cccc(Cl)c2c(C(=O)N2CCCCC2)n1: > 10000 nM
- Cc1c(-c2ccc3oc(N)nc3c2)ccc2ncc(N3CC(N4CCOCC4)C3)nc12: > 10000 nM
- COc1cccc2cc([C@H](C)NC(=O)c3c(N)nn4cccnc34)n(-c3ccccc3)c(=O)c12: > 10000 nM
- C[C@H](O)CC1OC(=O)N(c2cc(-c3cnc(N)nc3C(F)(F)F)nc(N3CCOCC3)n2)[C@H]1C (single isomer, unassigned): 11 nM
- CN1CCC(Nc2nc3cc(-c4ccc5ncc(C(=O)N6CCOCC6)n5c4)ccc3o2)CC1: > 10000 nM
- C[C@H](Nc1ncnc2[nH]cnc12)c1cc2cccc(-c3cnn(C)c3)c2c(N2CCN(C)CC2)n1: < 10000 nM
- COc1cc(-n2c([C@H](C)Nc3nc(N)ncc3C#N)cc3cccc(Cl)c3c2=O)ccc1F: 1000 to 10000 nM
- C[C@H](Nc1ccnc2scnc12)c1cc2cccc(-c3cnn(C)c3)c2c(=O)n1-c1ccccc1: 1000 to 10000 nM
- CN1CCN(C(=O)c2cnc3cnc(-c4ccc5oc(N)nc5c4)cn23)CC1: > 10000 nM
- CN(C)CC(=O)N1CCC(Nc2ncnc3ccc(-c4ccc5oc(N)nc5c4)cc23)CC1: < 1000 nM
- CNC(=O)C(C)Cn1cnc2ccc(-c3cnc(OC)c(NS(=O)(=O)c4cc(Cl)c(F)cc4F)c3)cc2c1=O (single isomer, unassigned): 175 nM

###

pIC50: −log10 of the molar value.
Note to self: these molecules have pIC50 reported for PIK3CB (Human) (UniProt P42338) in various publications.
REPORTED METRIC: pIC50

- Cc1cccc2cc(Cn3nc(C#C[C@@H](C)O)c4c(N)ncnc43)n(-c3ccccc3O)c(=O)c12: < 5.00
- CNC(=O)[C@H](C)Cn1cnc2ccc(-c3cnc(OC)c(NS(=O)(=O)c4ccc(Cl)c(C)c4)c3)cc2c1=O: 6.69
- Cc1nc2c(-c3nnc[nH]3)cc(-c3cc(N)nc(N)n3)cc2n1-c1ccnc2c(Cl)cccc12: 6.54
- O=C(c1cnc2ccc(-c3cncc(NS(=O)(=O)c4ccc(F)cc4F)c3)cn12)N1CCOCC1: < 5.00
- CNC(=O)C(C)Cn1cnc2ccc(-c3cnc(OC)c(NS(=O)(=O)c4ccc(Cl)cc4C)c3)cc2c1=O (single isomer, unassigned): 6.57
- CN1CCN(C2CN(c3cnc4ccc(-c5ccc6oc(N)nc6c5)nc4c3)C2)CC1(C)C: > 6.00
- Cc1nc2c(C(N)=O)cc(-c3ccnc(C#N)c3)cc2n1-c1ccnc2c(F)ccc(F)c12: 7.29
- C[C@H](Nc1ncnc2scnc12)c1cc2cccc(Cl)c2c(C(=O)N2CCCOCC2)n1: > 5.00
- COc1cccc(-n2c([C@H](C)Nc3nc(N)ncc3C#N)cc3cccc(Cl)c3c2=O)c1: 5.00 to 6.00
- C[C@H]1COCCN1c1cnc2ccc(-c3ccc4oc(N)nc4c3)nc2n1: > 5.00
- Nc1nc2cc(-c3ccc4ncc(N5CCNC(C(F)F)C5)nc4c3)ccc2o1 (centres unmarked): > 6.00
- Cc1ccccc1-n1c(Cn2nc(-c3ccc(F)c(O)c3)c3c(N)ncnc32)cc2ccccc2c1=O: < 5.00
- CNC(=O)Nc1ccc(-c2nc(N3CCOCC3)nc3c2cnn3C(C)C)cc1: < 7.00
- COc1cc(-c2cccc3cc([C@H](C)NC(=O)c4c(N)nn5cccnc45)n(C4CCCCC4)c(=O)c23)ccn1: < 5.00
- C[C@H](Nc1ncnc2cccnc12)c1cc2cccc(Cl)c2c(C(=O)N2CCOCC2)n1: > 5.00
- Nc1nc2cc(-c3ccc4ncc(C(=O)N5CCOCC5)n4c3)cnc2o1: > 5.00
- Cc1cccc2cc(C(C)Nc3ncnc4[nH]cnc34)n(C3CCC3)c(=O)c12 (centres unmarked): > 5.00

###

Note to self: these molecules have IC50 reported for PIK3CB (Human) in various publications.
REPORTED METRIC: IC50

* COc1ncc(-c2cccc3cc([C@H](C)Nc4ncnc5scnc45)n(-c4ccccc4)c(=O)c23)cn1 | 1000 to 10000 nM
* CN1CCN(c2ccc3ncc(-c4ccc5oc(N)nc5c4)cc3n2)CC1 | < 10000 nM
* CNC(=O)CCCn1cnc2ccc(-c3cnc(OC)c(NS(=O)(=O)c4ccc(F)cc4Cl)c3)cc2c1=O | 33 nM
* Cc1cccc2cc(Cn3nc(C#C[C@@H](C)O)c4c(N)ncnc43)n(C3CC3)c(=O)c12 | < 1000 nM
* COC[C@@H]1CCN(C(=O)Nc2nc3c(s2)-c2nc(C(C)(C)C)ncc2CC3)[C@@H]1C(N)=O | 409 nM
* CN(C)C1CN(c2cnc3ccc(-c4ccc5oc(N)nc5c4)cc3n2)C1 | < 10000 nM
* Cc1csc2nc(C(C)Nc3nc(N)nc4[nH]cnc34)c(-c3cc(F)cc(F)c3)c(=O)n12 (stereo not shown) | > 500 nM
* C[C@H](NC(=O)c1nc(-c2ccccc2)cnc1N)c1cc2cccc(Cl)c2c(=O)n1-c1ccccc1 | > 10000 nM
* CC(C)(C)c1ncc2c(n1)-c1sc(NC(=O)N3CCC3C(N)=O)nc1CC2 (stereo not shown) | 135 nM
* CC(=O)Nc1nc2ccc(-c3nn(Cc4cc5cccc(C)c5c(=O)n4C(C)C)c4ncnc(N)c34)cc2s1 | < 10000 nM
* COc1ccc(-c2ccc3ncc(C(=O)N4CCOCC4)n3c2)cc1NS(=O)(=O)c1ccccc1 | > 10000 nM
* CCCc1nc2c(-c3nnc[nH]3)cc(-c3ccnc(N)c3F)cc2n1-c1ccnc2c(F)ccc(F)c12 | 5 nM
* Cc1cccc2cc(Cn3nc(-c4cccc(O)c4)c4c(N)ncnc43)n(-c3ccccc3C(C)C)c(=O)c12 | < 1000 nM
* CC(=O)NC[C@@H]1CCN(C(=O)Nc2nc(C)c(-c3ccnc(C4(C)CC4)c3)s2)[C@@H]1C(N)=O | 3220 nM
* Cc1c(-c2cc(-c3nnc[nH]3)c3nc(C)n(-c4ccnc5c(F)ccc(F)c45)c3c2)ccnc1N | 2800 nM
* Cc1nc([C@H](C)Nc2ncnc3[nH]cnc23)cc2cccc(-c3cccnc3)c12 | > 10000 nM
* CCc1nc2c(-c3nnc[nH]3)cc(-c3ccnc(N)c3)cc2n1-c1ccnc2c(F)ccc(F)c12 | 13 nM
* CCN(CC)c1cnc2ccc(-c3ccc4oc(N)nc4c3)nc2n1 | > 10000 nM
* CNC(=O)C(C)Cn1cnc2ccc(-c3cnc(OC)c(NS(=O)(=O)c4cc(C(F)(F)F)cc(C(F)(F)F)c4)c3)cc2c1=O (single isomer, unassigned) | 1950 nM
* Cc1ccccc1-n1c(Cn2nc(-c3cccc(F)c3)c3c(N)ncnc32)cc2cccc(C)c2c1=O | > 10000 nM
* C[C@H](Nc1ncnc2[nH]cnc12)c1cc2cccc(F)c2c(N2CCN(C)CC2)n1 | > 10000 nM
* Cc1nc(NC(=O)N2CC[C@@H](CN3CCOCC3)[C@H]2C(N)=O)sc1-c1ccnc(C(C)(C)C(F)(F)F)c1 | 2280 nM
* COc1ncc(-c2cccc3cc([C@H](C)NC(=O)c4c(N)nn5cccnc45)n(-c4ccccc4)c(=O)c23)s1 | > 10000 nM
* Cc1cccc2cc([C@H](C)Nc3ncnc4[nH]cnc34)nc(N3CCN(C)CC3)c12 | < 10000 nM
* CCN(CC)c1ncc2c(n1)-c1sc(NC(=O)N3CC[C@@H](C)[C@H]3C(N)=O)nc1CC2 | 519 nM
* Cc1cccc2cc(Cn3nc(-c4cnn(CCO)c4)c4c(N)ncnc43)n(-c3ccccc3F)c(=O)c12 | > 10000 nM
* Nc1nc2cc(-c3ccc4ncc(-c5cn[nH]c5)nc4c3)ccc2o1 | < 1000 nM
* COC[C@@H]1CCN(C(=O)Nc2nc(C)c(-c3ccnc(C(C)(C)C(F)(F)F)c3)s2)[C@@H]1C(N)=O | 1460 nM
* C[C@H](Nc1ncnc2[nH]cnc12)c1cc2cccc(Cl)c2c(C(=O)N2CCC(F)(F)C2)n1 | > 10000 nM
* C[C@H](NC(=O)c1c(N)nn2cccnc12)c1cc2cccc(C3CC3)c2c(=O)n1-c1ccccc1 | > 10000 nM
* COC1CN(C(=O)c2cnc3ccc(-c4ccc5oc(N)nc5c4)cn23)C1 | < 10000 nM
